Target: PI3K-δ (PI3K(p1108/p857) (h)) (Homo sapiens)
Sequence (O00329 whole entry): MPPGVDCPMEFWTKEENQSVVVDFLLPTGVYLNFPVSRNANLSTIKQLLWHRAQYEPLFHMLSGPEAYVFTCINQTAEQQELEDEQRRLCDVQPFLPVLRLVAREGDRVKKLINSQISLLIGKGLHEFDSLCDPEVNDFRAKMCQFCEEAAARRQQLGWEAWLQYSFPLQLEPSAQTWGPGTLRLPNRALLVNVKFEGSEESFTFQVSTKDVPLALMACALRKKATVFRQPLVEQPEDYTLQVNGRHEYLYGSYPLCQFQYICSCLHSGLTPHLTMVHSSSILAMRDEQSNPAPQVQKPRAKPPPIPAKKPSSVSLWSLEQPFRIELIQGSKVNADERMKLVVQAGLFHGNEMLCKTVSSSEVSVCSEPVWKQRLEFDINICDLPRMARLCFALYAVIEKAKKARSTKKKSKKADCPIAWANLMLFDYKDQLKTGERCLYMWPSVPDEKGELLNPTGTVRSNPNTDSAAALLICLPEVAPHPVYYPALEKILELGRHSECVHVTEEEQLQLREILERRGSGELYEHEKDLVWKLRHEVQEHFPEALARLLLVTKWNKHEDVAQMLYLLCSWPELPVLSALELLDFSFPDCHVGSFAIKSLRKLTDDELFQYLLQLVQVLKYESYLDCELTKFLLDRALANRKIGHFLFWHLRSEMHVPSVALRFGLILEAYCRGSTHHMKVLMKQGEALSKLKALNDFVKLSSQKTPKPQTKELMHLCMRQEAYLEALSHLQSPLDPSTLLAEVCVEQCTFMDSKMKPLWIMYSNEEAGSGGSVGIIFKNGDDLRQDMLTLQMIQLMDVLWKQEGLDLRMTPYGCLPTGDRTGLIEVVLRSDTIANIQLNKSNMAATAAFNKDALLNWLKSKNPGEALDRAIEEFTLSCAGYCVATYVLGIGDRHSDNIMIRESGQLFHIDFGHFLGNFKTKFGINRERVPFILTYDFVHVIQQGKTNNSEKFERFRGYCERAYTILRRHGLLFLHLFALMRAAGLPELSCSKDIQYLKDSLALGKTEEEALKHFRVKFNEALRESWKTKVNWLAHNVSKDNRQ
Sequence (P27986 whole entry partner): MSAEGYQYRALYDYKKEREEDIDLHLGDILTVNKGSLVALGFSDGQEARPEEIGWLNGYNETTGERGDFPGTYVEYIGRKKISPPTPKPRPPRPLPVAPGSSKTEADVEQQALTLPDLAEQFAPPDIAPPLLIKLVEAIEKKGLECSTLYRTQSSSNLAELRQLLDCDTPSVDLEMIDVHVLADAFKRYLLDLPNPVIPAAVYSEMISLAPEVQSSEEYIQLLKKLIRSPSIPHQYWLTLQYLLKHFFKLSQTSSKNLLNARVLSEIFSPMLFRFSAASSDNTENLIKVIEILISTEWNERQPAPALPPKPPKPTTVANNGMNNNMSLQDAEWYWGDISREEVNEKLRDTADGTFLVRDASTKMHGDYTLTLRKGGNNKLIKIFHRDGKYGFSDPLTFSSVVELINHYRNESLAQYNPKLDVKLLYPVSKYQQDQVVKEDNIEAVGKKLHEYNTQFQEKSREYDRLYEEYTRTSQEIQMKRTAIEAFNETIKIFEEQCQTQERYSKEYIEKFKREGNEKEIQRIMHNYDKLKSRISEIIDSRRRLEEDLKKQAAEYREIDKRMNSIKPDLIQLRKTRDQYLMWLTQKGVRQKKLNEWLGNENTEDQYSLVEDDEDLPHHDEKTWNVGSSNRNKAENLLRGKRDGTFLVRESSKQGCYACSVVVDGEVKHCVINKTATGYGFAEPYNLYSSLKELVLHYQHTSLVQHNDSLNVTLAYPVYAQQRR
Assay: Evaluation of inhibitory activity against PI3K-δ (HTRF kinase assay)
Assay type: biochemical
Details: compound concentration 0.01 μM; read-out: EXP_VALUE(% Inhibition) PI3K-δ 0.01 μM
Method: <Experimental Example 1> Evaluation of Inhibitory Activity Properties Against PI3K-δ […] A detection buffer comprising Eu (europium)-labelled anti-GST monoclonal antibody, GST-tagged GRP1 PH domain and streptavidin-allophycocyanin was added. A plate was read in a time-resolved fluorescence mode and a homogeneous time-resolved fluorescence (HTRF) signal was determined according to HTRF=10000×(Em 665 nm/Em 620 nm).
// reported inhibition at 0.01 µM per item
API: value field is a number in %; no unit string.

Illustrative cases are given below, each with its answer.
{"columns": ["smilesText", "targetOrSystem", "value"],
 "data": [
  ["C[C@H](Nc1ncnc2[nH]ccc(=O)c12)c1c(Cl)c2cccc(-c3ccc(C(=O)N4CCOCC4)cc3)c2c(=O)n1-c1ccccc1", "PI3K-δ (PI3K(p1108/p857) (h)) (Homo sapiens)", 88],
  ["CCOc1cnc(-c2cccc3c(Cl)c([C@H](C)Nc4ncnc5[nH]ccc(=O)c45)n(-c4ccccc4)c(=O)c23)cn1", "PI3K-δ (PI3K(p1108/p857) (h)) (Homo sapiens)", 76],
  ["C[C@H](Nc1ncnc2[nH]ccc(=O)c12)c1c(Cl)c2cccc(C(=O)O)c2c(=O)n1-c1ccccc1", "PI3K-δ (PI3K(p1108/p857) (h)) (Homo sapiens)", 80],
  ["CC(C)Oc1ccc(-c2cccc3c(Cl)c([C@H](C)Nc4ncnc5[nH]ccc(=O)c45)n(-c4ccccc4)c(=O)c23)cn1", "PI3K-δ (PI3K(p1108/p857) (h)) (Homo sapiens)", 90],
  ["COc1cnc(-c2cccc3c(Cl)c([C@H](C)Nc4ncnc5[nH]ccc(=O)c45)n(-c4ccccc4)c(=O)c23)nc1", "PI3K-δ (PI3K(p1108/p857) (h)) (Homo sapiens)", 12],
  ["C[C@H](Nc1ncnc2[nH]ccc(=O)c12)c1c(Cl)c2cccc(Nc3ccccc3)c2c(=O)n1-c1ccccc1", "PI3K-δ (PI3K(p1108/p857) (h)) (Homo sapiens)", 8]
]}

Proceed to the following item.
IN: Request the reported inhibition at 0.01 µM associated with C[C@H](Nc1ncnc2[nH]ccc(=O)c12)c1c(Cl)c2cccc(C3=CCCC3)c2c(=O)n1-c1ccccc1
OUT: 82

---

molecular target: DNA-PK(h) (Homo sapiens); experiment: Evaluation of inhibitory activity against DNA-PK (HTRF kinase assay, GST-cMyc-p53 substrate); type: biochemical; settings: compound concentration 0.1 μM; read-out: EXP_VALUE(% Inhibition) DNA-PK(h) 0.1 μM
measuredAttribute: inhibition at 0.1 µM (%)
API: value field is a number in %; no unit string.

{"columns": ["compound", "measuredAttribute", "value"],
 "data": [
  ["C[C@H](Nc1ncnc2[nH]ccc(=O)c12)c1c(Cl)c2cccc(C#Cc3ccc(-c4ccccc4)cc3)c2c(=O)n1-c1ccccc1", "inhibition at 0.1 µM", 3.2]
]}

Proceed to the following item.
IN: Request the reported inhibition at 0.1 µM associated with C[C@H](Nc1ncnc2[nH]ccc(=O)c12)c1c(Cl)c2cccc(-c3cccnc3)c2c(=O)n1-c1ccccc1
OUT: 99
